Substrate: p-NP-C4
Run conditions: pH 7; 37 °C
Recorded endpoint: Km
Write down the value, and be sure its unit follows.

Worked set:
INSERT INTO measurements (protein, recorded_endpoint, assay_value) VALUES
  ('unnamed (protein) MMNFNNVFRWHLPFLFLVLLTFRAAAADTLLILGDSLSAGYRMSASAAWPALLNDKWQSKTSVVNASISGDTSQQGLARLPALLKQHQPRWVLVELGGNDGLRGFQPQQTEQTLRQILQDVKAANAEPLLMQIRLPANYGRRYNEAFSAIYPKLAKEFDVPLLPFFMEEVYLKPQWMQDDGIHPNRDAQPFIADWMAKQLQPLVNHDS', 'Km', '870 µM'),
  ('unnamed (protein) MMNFNNVFRWHLPFLFLVLLTFRAAAADTLLILGDALSAGYRMSASAAWPALLNDKWQSKTSVVNASISGDTSQQGLARLPALLKQHQPRWVLVELGGNDGLRGFQPQQTEQTLRQILQDVKAANAEPLLMQIRLPANYGRRYNEAFSAIYPKLAKEFDVPLLPFFMEEVYLKPQWMQDDGIHPNRDAQPFIADWMAKQLQPLVNHDS', 'Km', '1550 µM'),
  ('unnamed (protein) MMNFNNVFRWHLPFLFLVLLTFRAAAADTLLILGDSLSAGYRMSASAAWPALLNDKWQSKTSVVNASISGDTSQQGLARLPALLKQHQPRWVLVELGGNDGLRGFQPQQTEQTLRQILQDVKAANAEPLLMQIRLPANYGRRYNEAFSAIYPKLAKEFDVPLLPFFMEEVYLKPQWMQDDGIAPNRDAQPFIADWMAKQLQPLVNHDS', 'Km', '610 µM'),
  ('unnamed (protein) MMNFNNVFRWHLPFLFLVLLTFRAAAADTLLILGDSLSAGYRMSASAAWPALLNDKWQSKTSVVNASISGDTSQQGLARLPALLKQHQPRWVLVELGGADGLRGFQPQQTEQTLRQILQDVKAANAEPLLMQIRLPANYGRRYNEAFSAIYPKLAKEFDVPLLPFFMEEVYLKPQWMQDDGIHPNRDAQPFIADWMAKQLQPLVNHDS', 'Km', '1660 µM'),
  ('unnamed (protein) MMNFNNVFRWHLPFLFLVLLTFRAAAADTLLILGDSLSAGYRMSASAAWPALLNDKWQSKTSVVNASISGDTSQQGLARLPALLKQHQPRWVLVELGGNDGLRGFQPQQTEQTLRQILQDVKAANAEPLLMQIRLPANYGRRYNEAFSAIYPKLAKEFDVPLLPFFMEEVYLKPQWMQDAGIHPNRDAQPFIADWMAKQLQPLVNHDS', 'Km', '1880 µM');

Here is another protein to look at.
In: Answer with the recorded Km of unnamed (protein) MMNFNNVFRWHLPFLFLVLLTFRAAAADTLLILGDSLSAGYRMSASAAWPALLNDKWQSKTSVVNASISADTSQQGLARLPALLKQHQPRWVLVELGGNDGLRGFQPQQTEQTLRQILQDVKAANAEPLLMQIRLPANYGRRYNEAFSAIYPKLAKEFDVPLLPFFMEEVYLKPQWMQDDGIHPNRDAQPFIADWMAKQLQPLVNHDS only.
Out: 1100 µM
